Data credit: paper PMC12304826

Biological target: human cathepsin L (Homo sapiens)
Construct: purchased Enzo Life Sciences, Lörrach, Germany
Sequence (P07711 114-333): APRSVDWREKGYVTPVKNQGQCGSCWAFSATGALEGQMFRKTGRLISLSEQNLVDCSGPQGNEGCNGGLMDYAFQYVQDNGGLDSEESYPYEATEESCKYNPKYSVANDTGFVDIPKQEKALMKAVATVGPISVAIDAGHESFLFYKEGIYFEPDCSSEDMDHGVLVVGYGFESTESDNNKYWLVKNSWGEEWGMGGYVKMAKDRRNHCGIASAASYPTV
Experiment: Cathepsin L inhibition assay (Cbz-Phe-Arg-pNA)
Type: biochemical
Details: 20 µM inhibitor, 60 min; read-out: Residual activity @ 20 µM (%) Cat L
quantity-name: remaining activity at 20 µM (%)
One number for each entry, in %.

Consider the following illustrative entries.
INSERT INTO assay_data (molecule, test_value) VALUES
  ('CC(C)CC(CNC(=O)Oc1ccc(Cl)cc1)C(=O)N1CCC[C@@H]1C(=O)O (some centres unmarked) [Compound 9]', 95),
  ('CC(C)C[C@H](NC(=O)Oc1cccc(Cl)c1)C(=O)N1CCC[C@H]1C(=O)O [Compound 23]', 92),
  ('CC(C)C[C@H](NC(=O)Oc1ccc(Cl)c(NC(=O)Cc2ccccc2)c1)C(=O)N1CCC[C@H]1C(=O)O [Compound 20]', 96),
  ('CC(C)CC(OC(=O)Nc1ccc(Cl)cc1)C(=O)N1CCC[C@H]1C(=O)O (some centres unmarked) [Compound 17]', 94);

Attention now turns to another entry.
Incoming: Query the reported remaining activity at 20 µM for human cathepsin L (Homo sapiens); item: CC(C)C[C@H](NC(=O)Oc1ccc(NC(=O)Cc2ccccc2)c(Cl)c1)C(=O)N1CCC[C@H]1C(=O)O [Compound 24]
Outgoing: 97
